System: LNCaP xenografts
Assay: Ex vivo biodistribution and blocking studies in mice bearing LNCaP xenografts
Details: 1 h after injection, unblocked
Description: Imaging and biodistribution experiments were performed using NODSCID IL2RγKO male mice. […] For biodistribution and blocking studies, the mice were injected with 1–3 MBq of radiotracer. […] Blood was withdrawn by cardiac puncture, and the organs and tissues of interest were collected, weighed, and counted using an automatic γ-counter (PerkinElmer). Uptake values were expressed as the percentage of the injected dose per gram of tissue (%ID/g). […]
measured-attribute: lung uptake (%ID/g)
Answer with a number only, understood to be in %ID/g.

Recorded results for 5 molecules are shown here.
molecule: C[N+](C)(Cc1ccc(C(=O)NCCCC[C@H](NC(=O)N[C@@H](CCC(=O)O)C(=O)O)C(=O)O)cc1)C[B-](F)(F)F [^18F-1]
lung uptake (%ID/g): 1.37

molecule: C[N+](C)(Cc1cn(CC(=O)NC[C@H]2CC[C@H](C(=O)N[C@@H](Cc3ccc4ccccc4c3)C(=O)NCCCC[C@H](NC(=O)N[C@@H](CCC(=O)O)C(=O)O)C(=O)O)CC2)nn1)C[B-](F)(F)F [^18F-5]
lung uptake (%ID/g): 1.21

molecule: O=C(O)CC[C@H](NC(=O)N[C@@H](CCCCNC(=O)[C@H](Cc1ccc2ccccc2c1)NC(=O)[C@H]1CC[C@H](CNC(=O)Cn2cc(C[n+]3ccc([B-](F)(F)F)cc3)nn2)CC1)C(=O)O)C(=O)O [^18F-6]
lung uptake (%ID/g): 1.05

molecule: C[N+](C)(Cc1cn(Cc2ccc(C(=O)NCCCC[C@H](NC(=O)N[C@@H](CCC(=O)O)C(=O)O)C(=O)O)cc2)nn1)C[B-](F)(F)F [^18F-2]
lung uptake (%ID/g): 1.39

molecule: C[N+](C)(Cc1cn(CC(=O)NCCOCCOCCC(=O)N[C@@H](Cc2ccc3ccccc3c2)C(=O)NCCCC[C@H](NC(=O)N[C@@H](CCC(=O)O)C(=O)O)C(=O)O)nn1)C[B-](F)(F)F [^18F-7]
lung uptake (%ID/g): 0.40

**Q:** lung uptake for O=C(O)CCC(NC(=O)NC(CCCCNC(=O)c1ccc([18F])nc1)C(=O)O)C(=O)O (stereo not shown) [^18F-DCFPyL, reference compound] ?
**A:** 1.62

**Q:** Data request, read-out lung uptake, for C[N+](C)(Cc1cn(CC(=O)N[C@@H](CCC(=O)O)C(=O)NCCCC[C@H](NC(=O)[C@H](CCC(=O)O)NC(=O)Cn2cc(C[N+](C)(C)C[B-](F)(F)F)nn2)C(=O)NC[C@H]2CC[C@H](C(=O)N[C@@H](Cc3ccc4ccccc4c3)C(=O)NCCCC[C@H](NC(=O)N[C@@H](CCC(=O)O)C(=O)O)C(=O)O)CC2)nn1)C[B-](F)(F)F [^18F-8]
**A:** 1.97

====

test system: LNCaP xenografts; test: Ex vivo biodistribution and blocking studies in mice bearing LNCaP xenografts; conditions: 1 h after injection, unblocked
Documented spleen uptake across a set of compounds
Give just the number in %ID/g; leave the unit off.

compound: C[N+](C)(Cc1cn(CC(=O)NCCOCCOCCC(=O)N[C@@H](Cc2ccc3ccccc3c2)C(=O)NCCCC[C@H](NC(=O)N[C@@H](CCC(=O)O)C(=O)O)C(=O)O)nn1)C[B-](F)(F)F [^18F-7]
spleen uptake [%ID/g]: 0.75
//
compound: C[N+](C)(Cc1cn(CC(=O)NC[C@H]2CC[C@H](C(=O)N[C@@H](Cc3ccc4ccccc4c3)C(=O)NCCCC[C@H](NC(=O)N[C@@H](CCC(=O)O)C(=O)O)C(=O)O)CC2)nn1)C[B-](F)(F)F [^18F-5]
spleen uptake [%ID/g]: 3.21
//
compound: O=C(O)CC[C@H](NC(=O)N[C@@H](CCCCNC(=O)[C@H](Cc1ccc2ccccc2c1)NC(=O)[C@H]1CC[C@H](CNC(=O)Cn2cc(C[n+]3ccc([B-](F)(F)F)cc3)nn2)CC1)C(=O)O)C(=O)O [^18F-6]
spleen uptake [%ID/g]: 1.77

**Q:** Given the entry C[N+](C)(Cc1cn(Cc2ccc(C(=O)NCCCC[C@H](NC(=O)N[C@@H](CCC(=O)O)C(=O)O)C(=O)O)cn2)nn1)C[B-](F)(F)F [^18F-3] , report its measured spleen uptake.
**A:** 0.84
